Source of measurements: patent US20260007601A1

# Tested on: 293T cells
# Test Summary: Fluorescence detection of Fluc-mRNA (cell transfection efficiency of LNP formulations)
# Assay type: cell-based
# Test Settings: RLU of YK-202 / RLU of the named lipid
Assay Endpoint: Multiples of values that equivalent to YK-202
Give bare numbers.

CCCCCCCCCCCOC(=O)CCCCCN(CCCCCCCC(=O)OC(CCCCCCCC)CCCCCCCC)CCN(C)CCO [YK-201]	1.05

Would you mind listing Multiples of values that equivalent to YK-202 for each of the following molecules?
1. CCCCCCCCCCCOC(=O)CCCCCN(CCCCCCCC(=O)OC(CCCCCCC)CCCCCCC)CCN(CC)CCO [YK-205]
2. CCCCCCCCC(CCCCCC)C(=O)OCCCCCCN(CCCCO)CCCCCCOC(=O)C(CCCCCC)CCCCCCCC (stereo not shown) [ALC-0315, reference compound]
3. CCCCCCCCCCCOC(=O)CCCCCN(CCCCCCCC(=O)OC(CCCCCCCC)CCCCCCCC)CCN(C)CCOC [YK-215]
4. CCCCCCCCCCCOC(=O)CCCCCN(CCCCCCCC(=O)OCCC(CCCCCC)CCCCCC)CCN(C)CCO [YK-203]
5. CCCCCCCCCCOC(=O)CCCN(CCCCCC(=O)OCC(CCCCCCCC)CCCCCCCC)CCN(C)CCOC [YK-216]
6. CCCCCCC(CCCCCC)CCOC(=O)CCCCCN(CCCCCC(=O)OCCC(CCCCCC)CCCCCC)CCN(CCO)CCO [YK-214]
7. CCCCCCCCCCCOC(=O)CCCCCN(CCO)CCCCCCCC(=O)OC(CCCCCCCC)CCCCCCCC [SM-102, reference compound]
8. CCCCCCCCCCCOC(=O)CCCCCN(CCCCCCCC(=O)OCC(CCCCCCCC)CCCCCCCC)CCN(C)CCO [YK-202]

A:
[29.11, 13.95, 30.53, 7.74, 13.14, 6.54, 17.98, 1.00]

Would you mind listing Multiples of values that equivalent to YK-202 for each of the following molecules?
1. CCCCCCCCC(CCCCCCCC)OC(=O)CCCCCN(CCCCCC(=O)OC(CCCCCCCC)CCCCCCCC)CCN(CCO)CCO [YK-213]
2. CCCCCCCCCCCOC(=O)CCCCCN(CCCCCCCC(=O)OC(CCCCCCCC)CCCCCCCC)CCN(CC)CCO [YK-204]
3. CCCCCCCCCCCOC(=O)CCCCCN(CCCCCCCC(=O)OC(CCCCCCC)CCCCCCC)CCN(C)CCO [YK-206]
4. CCCCCCC(CCCCCC)CCOC(=O)CCCCCCCN(CCO)CCCCCCCC(=O)OCCC(CCCCCC)CCCCCC [Compound 23, reference compound]
5. CCCCCCCCC(CCCCCCCC)OC(=O)CCCCCCCN(CCO)CCCCCCCC(=O)OCCC(CCCCCC)CCCCCC [Compound 21, reference compound]
6. CCCCCCCCCCOC(=O)CCCN(CCCCCC(=O)OCC(CCCCCCCC)CCCCCCCC)C(=O)SCCCN(C)C [YK-219]
7. CCCCCCCCCCOC(=O)CCCN(CCO)CCCCCC(=O)OCC(CCCCCCCC)CCCCCCCC [YK-009, reference compound]

A:
[21.95, 82.30, 1.42, 22.49, 21.08, 19.89, 5.84]
